target.entity: human adenosine 3 receptor (Homo sapiens, UniProt P0DMS8)
Construct: expressed in transfected cells; host or cells: Chinese hamster ovary (CHO) cells, also transfected with a CRE-SPAP reporter
Sequence (P0DMS8 whole entry): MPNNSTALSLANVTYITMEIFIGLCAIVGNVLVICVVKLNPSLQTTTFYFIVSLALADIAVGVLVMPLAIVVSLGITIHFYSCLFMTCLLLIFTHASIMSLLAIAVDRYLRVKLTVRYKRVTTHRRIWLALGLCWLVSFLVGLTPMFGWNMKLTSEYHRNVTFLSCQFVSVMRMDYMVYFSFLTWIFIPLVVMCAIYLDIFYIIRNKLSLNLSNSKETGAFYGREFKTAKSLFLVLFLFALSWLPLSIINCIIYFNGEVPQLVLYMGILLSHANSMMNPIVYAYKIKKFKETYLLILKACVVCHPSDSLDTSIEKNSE
assay.overview: Agonist activity at adenosine 3 receptor, CHO cells with CRE-SPAP reporter (forskolin-enhanced cAMP)
Type: cell-based
condition.notes: CHO cells transfected with human A3 receptor; effect on forskolin-enhanced cAMP via SPAP; ratio to NECA; minimum values (about 20% inactive impurity)
property: A3 EC50 as a ratio of that of NECA

>>> experimental_value("CC(=O)OCCn1nnc(C2OC(n3cnc4c(NCC(c5ccccc5)c5ccccc5)nc(NCCN5CCCCC5)nc43)C(O)C2O)n1 (centres unmarked)")
">93"
>>> experimental_value("C=CCn1nnc(C2OC(n3cnc4c(NCC(c5ccccc5)c5ccccc5)nc(NCCN5CCCCC5)nc43)C(O)C2O)n1 (centres unmarked)")
">165"
>>> experimental_value("O=C(O)C(F)(F)F.O=C(O)C(F)(F)F.O[C@@H]1[C@H](O)[C@@H](c2nnn(CC3CC3)n2)O[C@H]1n1cnc2c(NCC(c3ccccc3)c3ccccc3)nc(NCCN3CCCCC3)nc21")
">93"
>>> experimental_value("CCCn1nnc(C2OC(n3cnc4c(NCC(c5ccccc5)c5ccccc5)nc(NCCN5CCCCC5)nc43)C(O)C2O)n1 (centres unmarked)")
">93"
>>> experimental_value("O=C(O)C(F)(F)F.O=C(O)C(F)(F)F.O[C@@H]1[C@H](O)[C@@H](c2nnn(C3CCC3)n2)O[C@H]1n1cnc2c(NCC(c3ccccc3)c3ccccc3)nc(NCCN3CCCCC3)nc21")
">95"
>>> experimental_value("OCCCn1nnc(C2OC(n3cnc4c(NCC(c5ccccc5)c5ccccc5)nc(NCCN5CCCCC5)nc43)C(O)C2O)n1 (centres unmarked)")
">93"
>>> experimental_value("O=C(O)C(F)(F)F.O=C(O)C(F)(F)F.O[C@@H]1[C@H](O)[C@@H](c2nnn(CCCl)n2)O[C@H]1n1cnc2c(NCC(c3ccccc3)c3ccccc3)nc(NCCN3CCCCC3)nc21")
">97"
>>> experimental_value("OCCn1nnc(C2OC(n3cnc4c(NCC(c5ccccc5)c5ccccc5)nc(NCCN5CCCCC5)nc43)C(O)C2O)n1 (centres unmarked)")
">94"
